Biological target: T1, EsCas13d, nuclease-dead (Eubacterium siraeum, UniProt B0MS50, R295A;H300A;R849A;H854A)
T1 sequence: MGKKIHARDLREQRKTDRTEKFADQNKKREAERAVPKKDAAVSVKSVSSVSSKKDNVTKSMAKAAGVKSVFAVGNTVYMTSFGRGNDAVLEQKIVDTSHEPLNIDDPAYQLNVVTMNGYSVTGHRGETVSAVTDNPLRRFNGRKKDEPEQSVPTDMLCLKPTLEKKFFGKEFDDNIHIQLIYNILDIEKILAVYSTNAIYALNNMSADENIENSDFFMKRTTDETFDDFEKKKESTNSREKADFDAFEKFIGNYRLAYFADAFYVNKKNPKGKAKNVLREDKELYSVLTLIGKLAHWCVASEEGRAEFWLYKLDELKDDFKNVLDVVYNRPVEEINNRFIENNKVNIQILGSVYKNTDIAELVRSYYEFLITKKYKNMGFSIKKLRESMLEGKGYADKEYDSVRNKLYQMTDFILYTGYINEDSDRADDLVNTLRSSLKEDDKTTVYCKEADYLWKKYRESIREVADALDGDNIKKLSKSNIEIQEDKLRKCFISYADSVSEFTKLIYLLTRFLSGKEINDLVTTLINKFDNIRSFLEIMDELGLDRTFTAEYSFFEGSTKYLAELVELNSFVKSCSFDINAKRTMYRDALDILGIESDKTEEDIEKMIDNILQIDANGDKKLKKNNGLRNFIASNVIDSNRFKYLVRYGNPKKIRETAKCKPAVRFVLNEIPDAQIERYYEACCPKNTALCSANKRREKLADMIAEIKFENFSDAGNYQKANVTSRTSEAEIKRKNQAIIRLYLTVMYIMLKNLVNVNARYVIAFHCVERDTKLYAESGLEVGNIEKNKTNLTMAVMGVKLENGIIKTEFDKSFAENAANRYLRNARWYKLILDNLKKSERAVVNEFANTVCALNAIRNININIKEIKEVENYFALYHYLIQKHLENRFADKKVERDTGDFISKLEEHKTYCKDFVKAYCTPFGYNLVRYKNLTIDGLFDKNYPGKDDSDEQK
Assay: crRNA (strand 1, pre-loaded); Mg2+; 40 mM Tris-HCl pH 7.5, 150 mM NaCl, 6 mM MgCl2, 1 mM DTT, 0.1% Tween-20, 0.2 mg/ml BSA; 25 C; 10 min per concentration, then washed
Conditions: tags: His6-TwinStrep-SUMO cleaved; N-terminal SNAP kept (SNAP-Surface 488); label: 3' end held by stalled T7 RNA polymerase
MEASURED ENDPOINT: pKd
Quick note: pKd values are minus log10 of concentrations in mol/L.

Examples with answers:
target 1 MT 5'PFS CAA 3'PFS UAG (mixed) RNA 1: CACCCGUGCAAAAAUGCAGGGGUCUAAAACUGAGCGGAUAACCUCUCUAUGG RNA 2: GGGAAUGGAUCCACAUCUACGAAUUCCAACCAUAGAGAGGUUAUCCGCUCAUAGAGAUCGGAAGAGCACACGU :: 7.77
target 1 insA 3' of 10,insG 3' of 2 (mixed) RNA 1: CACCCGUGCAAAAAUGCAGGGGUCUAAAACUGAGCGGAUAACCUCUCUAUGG RNA 2: GGGAAUGGAUCCACAUCUACGAAUUCGUACCAUAGAGAGGUUAAUCCGCUCGACCGAGAUCGGAAGAGCACACGU :: 7.91

The recorded pKd for entry target 1 U3A,U8A (mixed) RNA 1: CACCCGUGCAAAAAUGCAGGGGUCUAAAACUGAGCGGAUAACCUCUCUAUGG RNA 2: GGGAAUGGAUCCACAUCUACGAAUUCGUACCAUAGAGAGGUUAACCGCACACCGAGAUCGGAAGAGCACACGU equals 7.97
